Assignment: determine reported IC50 for the given molecules.
- System tested: human H-PGDS (Homo sapiens (Human))
- Assay text: Human H-PGDS binding inhibitory activity (AlphaLISA antagonistic assay)
- Reported conditions: His-tagged human H-PGDS 0.3 nmol/L, biotinylated H-PGDS inhibitor 45 nmol/L
Numbers only, in nM.

molecular_string=Cc1nn(-c2ncc(C(=O)N[C@H]3CC[C@H](OCC(C)(C)O)CC3)cn2)c2ccccc12 measured_number=5
molecular_string=Cc1nn(-c2ccc(C(=O)N[C@H]3CC[C@H](O)CC3)cn2)c2cc(F)ccc12 measured_number=71
molecular_string=Cc1nn(-c2ccc(C(=O)N[C@H]3CC[C@H](C(C)(C)O)CC3)cn2)c2cccc(F)c12 measured_number=74
molecular_string=Cc1nn(-c2ncc(C(=O)N[C@H]3CC[C@H](O)CC3)cc2F)c2ccccc12 measured_number=41
molecular_string=Cc1nn(-c2ncc(C(=O)N[C@H]3CC[C@H](O)CC3)cn2)c2cccc(F)c12 measured_number=200

Items follow; give IC50 for each.
1. CS(=O)(=O)CCCO[C@H]1CC[C@H](NC(=O)c2cnc(-n3nc(C(F)F)c4ccccc43)nc2)CC1
2. Cc1nn(-c2ccc(C(=O)N[C@H]3CC[C@H](C(C)(C)O)CC3)cn2)c2cc(F)ccc12
3. Cc1nn(-c2ncc(C(=O)N[C@H]3CC[C@H](C(C)(C)O)CC3)cn2)c2cc(F)ccc12

[3, 7, 3]

====

- System tested: human H-PGDS (Homo sapiens (Human), UniProt O60760)
- Sequence (O60760 whole entry): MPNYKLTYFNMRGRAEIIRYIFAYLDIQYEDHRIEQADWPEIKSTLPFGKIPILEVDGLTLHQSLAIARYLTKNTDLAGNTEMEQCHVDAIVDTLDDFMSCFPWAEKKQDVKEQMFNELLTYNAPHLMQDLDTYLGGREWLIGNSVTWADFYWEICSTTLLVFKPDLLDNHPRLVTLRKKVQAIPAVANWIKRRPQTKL
- Assay text: Human H-PGDS binding inhibitory activity (AlphaLISA antagonistic assay)
- Reported conditions: His-tagged human H-PGDS 0.3 nmol/L, biotinylated H-PGDS inhibitor 45 nmol/L
Assignment: determine reported IC50 for the given compounds.
Numbers only, in nM.

Guide cases for IC50, answers given:
molecular_string=CC(C)(O)C(=O)N1CCC(NC(=O)c2cnc(-n3nc(C(F)F)c4ccc(F)cc43)nc2)CC1 measure=IC50 measured_number=14
molecular_string=CC(C)(O)C12CC(NC(=O)c3cnc(-n4nc(C(F)F)c5ccccc54)nc3)(C1)C2 measure=IC50 measured_number=7

Items follow; give IC50 for each.
1. CC(C)(O)[C@H]1CC[C@H](NC(=O)c2cnc(-n3nc(C(F)F)c4ccncc43)nc2)CC1
2. Cc1nn(-c2ccc(C(=O)N[C@H]3CC[C@H](O)CC3)cn2)c2c(F)cccc12

1: 13; 2: 374
